measured-on: 5-hydroxytryptamine receptor 4 (Rattus norvegicus, UniProt Q62758)
Sequence (Q62758 whole entry): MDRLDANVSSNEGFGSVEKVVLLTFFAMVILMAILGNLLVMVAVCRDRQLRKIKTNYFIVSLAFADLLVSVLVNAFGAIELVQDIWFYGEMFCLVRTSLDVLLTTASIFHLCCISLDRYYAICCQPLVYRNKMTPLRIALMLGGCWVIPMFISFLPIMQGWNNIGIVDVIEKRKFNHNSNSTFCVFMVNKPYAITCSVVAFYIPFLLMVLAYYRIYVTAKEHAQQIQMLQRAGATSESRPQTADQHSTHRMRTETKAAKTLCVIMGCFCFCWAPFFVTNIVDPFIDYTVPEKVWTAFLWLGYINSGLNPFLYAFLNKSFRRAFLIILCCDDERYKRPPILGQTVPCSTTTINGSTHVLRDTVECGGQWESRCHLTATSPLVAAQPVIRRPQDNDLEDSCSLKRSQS
run-description: Agonist activity against serotonin 5-HT4 receptor in rat tunica muscularis mucosae assay
metric: EC50 (nM)

[[record]]
compound = "COc1cc(N)c(Cl)cc1C(=O)NCC1C2CC3CC1CN3C2 (configuration not stated)"
metric = "EC50"
observed_value = 660

[[record]]
compound = "COc1cc(N)c(Cl)cc1C(=O)NC1C2CC3CC1CN3C2 (configuration not stated)"
metric = "EC50"
observed_value = 382

